The entries below are paired with their reported z-score.
# protocol_notes: basal RPMI8226 viability, no added stimulus, profiling panel, cell-based, calcein-AM fluorescence, 48 h, PK04 Diversity Set (AID 1166);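 further: cells grown under basal conditions without added stimulus; test concentration not given here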
# test_settings: RPMI8226 myeloma viability, higher = more signal
Keep the answer to the number alone.

Here is how some molecules turned out for z-score.
{"molecule": "CCCC[C@@H](O)C1=C(COc2ccccc2)C[C@H]2C(=O)N(C)C(=O)[C@H]2[C@H]1CO", "z-score": 0.131}
{"molecule": "COCCCNC(=O)[C@@]1(Cc2ccccc2CN=[N+]=[N-])N=C(c2ccc(OCCCO)cc2)O[C@H]1c1ccccc1", "z-score": -4.32}
{"molecule": "Cc1ccccc1C(O)C1C=CC2C(=O)N(C)C(=O)C2N1N(c1ccccc1)c1ccccc1 (centres undefined)", "z-score": 0.0748}

Now examine the next entry.
response.value for O=C1NC(=O)C2C1C=CC(C(O)c1cccc3ccccc13)N2Nc1ccc(Cl)cc1Cl (centres undefined) (field: z-score) = -4.17

* * *

# protocol_notes: basal RPMI8226 viability, no added stimulus, profiling panel, cell-based, calcein-AM fluorescence, 48 h, PK04 Diversity Set (AID 1166);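 further: cells grown under basal conditions without added stimulus; test concentration not given here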
# test_settings: RPMI8226 myeloma viability, higher = more signal
reported_metric: z-score
Keep the answer to the number alone.

Here is how some compounds turned out for z-score.
{"compound": "CCCCC(=C=CC[C@@H](O)c1ccccc1OCCO)C[C@@H](O)COCc1ccccc1", "z-score": -2.12}
{"compound": "COC(=O)C(CC#Cc1ccc2c(c1)[C@]1(C(=O)N2)[C@H](C(=O)N2CCN(c3ncccn3)CC2)[C@H]2C(=O)O[C@H](c3ccccc3)[C@H](c3ccccc3)N2[C@@H]1c1ccc(OCCO)cc1)C(=O)OC", "z-score": 0.363}
{"compound": "C=CCNC(=O)[C@@H]1[C@H]2C(=O)O[C@H](c3ccccc3)[C@H](c3ccccc3)N2[C@H](c2ccc(O)cc2)[C@@]12C(=O)N(C(=O)OCCOC)c1ccc(C#CC3(O)CCCCCC3)cc12", "z-score": 0.895}
{"compound": "O=c1n(-c2ccccc2)c(=O)n2n1CC(COc1ccccc1)=C([C@H](O)CCc1ccccc1)[C@@H]2CO", "z-score": -2.34}
{"compound": "COCCCNC(=O)[C@@]1(Sc2ccc(C)cc2)CC(=O)N(C2CCCCC2)[C@@H]1c1ccc(CO)cc1", "z-score": -1.45}
{"compound": "C[C@]1(C(=O)NC2CC2)c2ccccc2C(=O)N(Cc2ccccc2)[C@H]1c1ccc(CO)cc1", "z-score": -0.655}

Now examine the next entry.
response.value for O=C1NC(=O)C2C1C=CC(C(O)c1c(F)cccc1Cl)N2Nc1ccc(Cl)cc1Cl (configuration not stated) (field: z-score) = -1.39

* * *

# system_name: Follistatin-related protein 3 (Homo sapiens) (UniProt O95633)
# Sequence (O95633 whole entry, looked up): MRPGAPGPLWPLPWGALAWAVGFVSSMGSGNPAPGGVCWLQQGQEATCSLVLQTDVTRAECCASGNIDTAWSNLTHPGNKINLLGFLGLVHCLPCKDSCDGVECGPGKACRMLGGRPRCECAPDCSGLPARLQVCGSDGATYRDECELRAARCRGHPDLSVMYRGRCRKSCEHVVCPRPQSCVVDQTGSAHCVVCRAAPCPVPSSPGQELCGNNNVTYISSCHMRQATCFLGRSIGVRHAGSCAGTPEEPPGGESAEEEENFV
# protocol_notes: FSTL3 binders on small-molecule microarrays, primary screen, biochemical, small-molecule microarray, 635 nm fluorescence (AID 1105);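 further: score merges emission near 667 nm and signal to noise per printed spot across three slides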
# test_settings: FSTL3 binding, higher = more signal
The entries below are paired with their reported composite z-score.
Keep the answer to the number alone.

Here is how some compounds turned out for composite z-score.
{"cpd_smiles": "COC(=O)c1cn(C[C@@H](Cc2ccccc2)NC(=O)N[C@H](CO)CCc2oc(C(C)=O)c(C(=O)OC)c2C(=O)OC)nn1", "composite z-score": 1.4}
{"cpd_smiles": "COC(=O)[C@@]1(Cc2ccc(F)cc2)[C@H]2c3cc(C(=O)N4CCCC4)n(CCc4ccc(O)c(O)c4)c3C[C@H]2CN1C(=O)c1ccccc1", "composite z-score": -0.457}

Now examine the next entry.
response.value for O=C1O[C@H](c2ccccc2)[C@H](c2ccccc2)N2[C@H]1[C@@H](C(=O)Nc1nc3ccccc3s1)[C@]1(C(=O)Nc3ccccc31)[C@H]2c1ccc(OCCO)cc1 (field: composite z-score) = 1.36

* * *

# protocol_notes: A549 cell viability effects, profiling panel, calcein-AM fluorescence, 48 h, basal (AID 1162); further: test concentration not given here
# test_settings: higher = more signal
reported_metric: z-score
Keep the answer to the number alone.

Here is how some molecules turned out for z-score.
{"molecule": "C=CCN1Cc2ccccc2[C@H]2OC(c3ccc(OCCCO)cc3)=N[C@@]2(CC=C)C1=O", "z-score": -0.391}
{"molecule": "[N-]=[N+]=Nc1ccccc1[C@H]1OC(c2ccc(OCCCO)cc2)=N[C@@]1(CCS(=O)(=O)c1ccccc1)C(=O)NCCN1CCOCC1", "z-score": 0.101}
{"molecule": "CN(C)CCCNC(=O)[C@@]1(C)c2ccccc2C(=O)N(Cc2ccccc2)[C@H]1c1ccc(CO)cc1", "z-score": 0.0156}
{"molecule": "C=C(C(=O)CC[C@@H](OC(C)=O)c1ccc(CO)o1)C(C)C", "z-score": -0.306}
{"molecule": "O=C1O[C@H](c2ccccc2)[C@H](c2ccccc2)N2[C@H]1[C@@H](C(=O)Nc1nc3ccccc3s1)[C@]1(C(=O)Nc3ccccc31)[C@H]2c1ccc(OCCO)cc1", "z-score": -0.52}
{"molecule": "CC1=C[C@@]2(CO)C(=O)[C@]3(CO3)[C@@H]1[C@H]1[C@]2(C)C=C(CO)C(=O)[C@]12CO2", "z-score": 0.23}

Now examine the next entry.
response.value for Cc1ccc(S[C@]2(C(=O)NCCCN(C)C)CC(=O)N(C3CCCCC3)[C@@H]2c2ccc(CO)cc2)cc1 (field: z-score) = 0.242

* * *

# system_name: Calmodulin-1 (Homo sapiens) (UniProt P0DP23)
# protocol_notes: CALM1 binders on microarrays, EGTA buffer, profiling panel, biochemical, small-molecule microarray, Cy5-labelled CALM1 (AID 1111);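 further: labelled calmodulin applied in Tris saline Tween buffer holding calcium plus EGTA and DTT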
# test_settings: Cy5-CALM1 binding fluorescence, higher = more signal
Classification field: Y = composite z-score at or over -0.2; N = composite z-score under -0.2.

Some solved entries appear below for comparison.
{"molecule": "Cc1ccc(S[C@]2(C(=O)O)CC(=O)N(C3Cc4ccccc4C3)[C@@H]2c2ccc(CO)cc2)cc1", "category_label": "Y"}
{"molecule": "O=C(NCCCCCNC(=O)/C(Cc1ccccc1)=N/O)OCc1ccccc1", "category_label": "N"}
{"molecule": "COC(=O)c1c(CC[C@@H](CO)NC(=O)N2CCC[C@H]2Cn2cc(Cc3ccccc3)nn2)oc(C(C)=O)c1C(=O)OC", "category_label": "Y"}
{"molecule": "CO[C@H]1O[C@H](CO)[C@@H](OC(=O)Nc2ccc3c(c2)OCO3)[C@H](OC(=O)c2cc3ccccc3[nH]2)[C@H]1OC(=O)c1cc2ccccc2[nH]1", "category_label": "N"}
{"molecule": "COc1ccc([Si](C)(C)[C@@H]2[C@@H](CC(=O)N(CCO)Cc3ccccc3)O[C@]3(C(=O)N(c4ccccc4)c4ccccc43)[C@H]2C)cc1", "category_label": "Y"}

// query Could you please find out whether CCCCCCc1nc(-c2cc(C)c(OC)c(C)c2)c(C)c2c1[Si](C(C)C)(C(C)C)OC2 has composite z-score that meets -0.2 or exceeds it?
// result N

// query Could you please find out whether O=C1O[C@@H](c2ccccc2)[C@@H](c2ccccc2)N2[C@@H](c3ccccc3OCCO)[C@]3(C(=O)Nc4ccc(C#CCCO)cc43)[C@@H](C(=O)N3CCCCCCC3)[C@H]12 has composite z-score that meets -0.2 or exceeds it?
// result Y

// query Could you please find out whether COc1ccc(CCNC(=O)[C@@H]2c3ccccc3C(=O)N(Cc3cc(C(F)(F)F)cc(C(F)(F)F)c3)[C@H]2c2ccc(CO)cc2)cc1 has composite z-score that meets -0.2 or exceeds it?
// result Y

// query Could you please find out whether Cc1ccc(S[C@]2(C(=O)NCCCN(C)C)CC(=O)N(C3CCCCC3)[C@@H]2c2ccc(CO)cc2)cc1 has composite z-score that meets -0.2 or exceeds it?
// result N

// query Could you please find out whether CC(C)Cc1ccc(CN2CC[C@@H](NC(=O)Nc3ccccc3)C2)cc1 has composite z-score that meets -0.2 or exceeds it?
// result N

* * *

# system_name: Torsin-1A (Homo sapiens)
# protocol_notes: small-molecule binders of mutant TOR1A in lysate, primary screen, cell lysate, small-molecule microarray, COS7 lysate, 635/667 nm fluorescence (AID 1150);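 further: score pools 667 nm emission and signal to noise measuring lysate protein binding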
# test_settings: COS7 hTOR1A mutant lysate, 635 nm fluorescence, higher = more signal
The entries below are paired with their reported composite z-score.

{"compound": "COc1ccc([Si](C)(C)[C@@H]2[C@@H](CCn3cc([C@H](O)c4ccccc4)nn3)O[C@]3(C(=O)N(Cc4ccc(N5CCC5=O)cc4)c4ccccc43)[C@H]2C)cc1", "composite z-score": 0.269}
{"compound": "CC(C)(C)OC(=O)CC[C@]1(C(=O)NCC(O)CO)N=C(c2ccc(OCCCO)cc2)O[C@H]1c1ccccc1 (some centres undefined)", "composite z-score": 1.6}
{"compound": "COC1OC[C@]2(C)[C@H]3C4=C(CN2C(=O)OC(C)(C)C)[C@H](C)C(CO)C(CO)C4CC[C@@H]13 (some centres undefined)", "composite z-score": 0.86}
{"compound": "C=C(C)c1cc2c(c(CCCCCC)n1)[Si](C(C)C)(C(C)C)OC2", "composite z-score": -1.05}
{"compound": "CCCCC(O)C1C=CC2C(=O)N(c3ccccc3)C(=O)C2N1Nc1ccc(C(C)C)cc1 (centres undefined)", "composite z-score": 0.214}
{"compound": "COc1ccc([Si](C)(C)[C@@H]2[C@@H](CC(=O)N3Cc4ccccc4C[C@H]3CO)O[C@]3(C(=O)N(C)c4ccccc43)[C@H]2C)cc1", "composite z-score": 0.741}

response.value for O=C(CS)NCCCCCNC(=O)[C@@H]1C[C@@H]2C(=O)N3CCC[C@H]3C(=O)N2[C@@H]1c1cccc(OCCO)c1 (field: composite z-score) = 0.656

response.value for CC(C)N1C(=O)C[C@@](C(=O)NCCCN(C)C)(c2ccc([N+](=O)[O-])cc2)[C@H]1c1ccc(CO)cc1 (field: composite z-score) = 0.46

response.value for COc1cc2c(cc1OC)CN(C(=O)[C@@H]1[C@H]3C(=O)O[C@H](c4ccccc4)[C@H](c4ccccc4)N3[C@H](c3ccc(OCCO)cc3)[C@@]13C(=O)Nc1ccc(C#CC4(O)CCCCCC4)cc13)CC2 (field: composite z-score) = 1.09

response.value for [N-]=[N+]=Nc1ccccc1C[C@]1(C(=O)N2CCOCC2)N=C(c2ccc(OCCCO)cc2)O[C@H]1c1ccccc1 (field: composite z-score) = 0.272

response.value for C=CC[C@]1(C(=O)O)COC(c2ccc(OCCCO)cc2)=N1 (field: composite z-score) = 0.338

response.value for COCCOC(=O)N1C(=O)[C@@]2(c3cc(C#CC4=CCCCC4)ccc31)[C@H](c1ccc(OCCO)cc1)N1[C@H](c3ccccc3)[C@H](c3ccccc3)OC(=O)[C@H]1[C@@H]2C(=O)NC[C@H](O)c1ccccc1 (field: composite z-score) = 0.51

response.value for COc1ccc(C#Cc2ccc3c(c2)[C@]2(C(=O)N3)[C@H](c3ccc(O)cc3)N3[C@H](c4ccccc4)[C@H](c4ccccc4)OC(=O)[C@H]3[C@@H]2C(=O)O)cc1 (field: composite z-score) = 0.721

response.value for CO[C@H]1O[C@H](CO)[C@@H](OC(=O)Nc2ccccc2-c2ccccc2)[C@H](OC(=O)Nc2ccc3c(c2)OCO3)[C@H]1OC(=O)Nc1ccc2c(c1)OCO2 (field: composite z-score) = 0.723

Origin of values: PubChem BioAssay
